- tested_target: GIPC2, Q8TF65
- Sequence (Q8TF65 112-203): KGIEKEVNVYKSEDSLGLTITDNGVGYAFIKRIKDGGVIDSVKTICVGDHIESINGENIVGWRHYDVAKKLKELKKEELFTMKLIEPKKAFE
- test_details: holdup assay
- Parameters: key: below the threshold = too weak to quantify, mostly under pKd 3.1 to 4
- test_parameters: plain residues with an end cap or a label only (N-terminal biotin on a linker: ado-ado)

binder | pKd
TLPRKRMSSI [GPRC6A, Q5T6X5] | below the threshold
SAKVRTVTSV [RASL11B, Q9BPW5] | below the threshold
SKENVQETQI [LRRC4B, Q9NT99] | below the threshold
TACCHSETVV [TGFA, P01135] | below the threshold
PKRSFIESNV [TANC1, Q9C0D5] | 3.83
LSEFKAMDSI [CTNNA1, P35221] | below the threshold
TPPAAKKSRI [BAZ1A, Q9NRL2] | below the threshold
PPYRHRNTVV [ERBB4, Q15303] | 3.6

Ref: paper PMC9482650
